Data credit: the NTF2 design screens of Basanta et al. (2020)

assay: protease stability score; higher = more stable; yeast display proteolysis, trypsin and chymotrypsin;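 further: relative to predicted unfolded state with 0 unfolded-like and 1 meaning tenfold more protease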
For each of the sequences below, state its protease stability score.
Give bare numbers.

Before answering, review these 8 worked examples.
SESEKASEIATKELEEVEKTGDEKTIEDYMDPNTRLHINGVDLHGMENFLEFWHRLLRKLGFESTSFHLKSSRIQGNKIKMHSIIHVKQGEKDISFDVEYIALKFNGRWIEESMSSK : 1.32
DEDEHHSELASRLMHETTRTGDETSFLNLADPDTRLDINGREFIGREEWVKFFHKWSKHLGAKVIDTRFNDLRVIDGRIKLDMEYIVHVGDKTMHHKMIVFALKVNGRWHLESLKFE : 0.436
TEDDELEKWATQLVKEVLETGDERLLENLADPNVRVEIGEKDSHGREEMLKDWKHMGIDHIHFEHSEFVGDFIDIHLVIHVNGKDLKQRIIILKIDGQWFLHSVHVE : 1.75
KEREELLKTAADLMYHIWHTGDFEKLFKNVDPHVKINVGDKTYVGREQMHKIFKELKERLGFDVSSLEHRHLDMQGDFIFNELHVRLHQGDFEIQSWIHVIIYKVNGKWVVHEIKLHWD : 1.6
DELTEEVRKFLERLWRATHTGNEKEFWELVDPNVRDDINGRILHGRETVIRIITELGFKVRHNEFRDERVVGEYATVHGNFNVDINGKEHEVDVEIIVEKVNGVWTLKYRHFR : 1.54
SELEKLSHELARLLIENWETGDWKRFIDLIDPHAKLHIGDKDHIGREEITRFLKEVWHRFDHIEMRIHHIKVIGNYAHSDGEMIININGQERRHDVEIIVVVVNGVVHSVEIHIE : 1.9
SEVEESAKIIAELWAHSVETGDEHTLRELMDPNTRFEYGDKERHGRENVTKYFLHFQKWLGFKHIRLEIEDSKAIGDKIKIDLTIKLHQGEKHDFVIVQLFVTKVNGRWVIHSMIVH : 1.58
SEDEEMARRFFEHLLHLWRTGDEEILRNLVDPDTQMQIGDKHLHGRDAVEHMIRRIDHVEVRKVRMREIRVQGDYVVIHVELDGTQEVNGKRIEQHIEFTVFVHKVDGRWIWRSIYQI : 1.37

Could you tell me protease stability score for each of these sequences? They are listed below.
1. SHEEHLKRDMLERSFKAWLTGDEESLHELLDPHVRVHFNGRDFHGRELVSTLIREMLRWLGIKHSRFHHIQVFDGKARLELRLEQGEFEVEIEVISLKVDGRWFQHELRFH
2. DEQEEDDREAVKHALEVWETGDERVLWELFDPHVRIIVGDKHVHGREHFLRLTHELKRKVKGIRFDIRHVNLYDGRIEMDTDLEVDGRKHKTTIIAKKVNGRWILESIEIR
3. DEQSRVSEEVIKIWLESVNTGDEKSLSELIDPNVKIHVNGKKMHGWRDAEDHARRIDHMHVEDFKIESIQTQGDFAILHGRLVYSRIVNGVELHSDEHVEMVILKYNGRWSIEEVRVR

1: 1.02; 2: 1.45; 3: 1.27
